# TARGET_OF_ASSAY: human KOR (Homo sapiens)
# Construct: expressed in transfected cells; host or cells: HEK293T
# Sequence (P41145 whole entry): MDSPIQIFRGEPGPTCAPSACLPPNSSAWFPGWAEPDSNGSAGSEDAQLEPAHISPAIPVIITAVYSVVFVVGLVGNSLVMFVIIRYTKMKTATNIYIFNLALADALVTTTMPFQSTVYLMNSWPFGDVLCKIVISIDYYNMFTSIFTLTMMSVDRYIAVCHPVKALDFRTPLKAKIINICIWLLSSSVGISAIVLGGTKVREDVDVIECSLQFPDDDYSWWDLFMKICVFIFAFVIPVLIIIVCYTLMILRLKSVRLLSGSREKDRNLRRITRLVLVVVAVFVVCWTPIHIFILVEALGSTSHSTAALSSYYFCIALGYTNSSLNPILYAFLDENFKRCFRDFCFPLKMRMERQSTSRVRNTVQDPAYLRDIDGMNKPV
# Sequence (P09471 2-354 partner limits assumed): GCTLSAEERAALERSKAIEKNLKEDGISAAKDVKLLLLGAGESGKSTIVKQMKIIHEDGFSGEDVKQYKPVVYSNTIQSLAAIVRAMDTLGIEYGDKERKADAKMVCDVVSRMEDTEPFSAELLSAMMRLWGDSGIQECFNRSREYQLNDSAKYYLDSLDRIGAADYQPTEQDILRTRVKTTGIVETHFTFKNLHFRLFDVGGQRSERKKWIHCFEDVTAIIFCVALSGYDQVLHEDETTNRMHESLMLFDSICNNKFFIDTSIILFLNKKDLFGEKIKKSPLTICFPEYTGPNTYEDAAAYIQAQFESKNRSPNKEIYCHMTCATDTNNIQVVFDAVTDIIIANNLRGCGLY
# Sequence (P16520 whole entry partner): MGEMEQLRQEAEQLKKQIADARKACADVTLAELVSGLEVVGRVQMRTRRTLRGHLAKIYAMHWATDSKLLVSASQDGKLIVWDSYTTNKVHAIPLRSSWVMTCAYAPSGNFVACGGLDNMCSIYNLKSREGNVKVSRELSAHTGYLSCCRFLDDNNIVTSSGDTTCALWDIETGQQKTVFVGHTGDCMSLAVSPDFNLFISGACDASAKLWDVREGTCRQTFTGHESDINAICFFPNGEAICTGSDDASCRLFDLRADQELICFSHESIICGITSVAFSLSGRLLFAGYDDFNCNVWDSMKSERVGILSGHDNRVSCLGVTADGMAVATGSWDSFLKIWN
# Sequence (Q9UK08 1-67 partner limits assumed): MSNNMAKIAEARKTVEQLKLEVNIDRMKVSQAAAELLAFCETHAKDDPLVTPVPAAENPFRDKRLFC
# EXPERIMENT_DESCRIPTION: BRET recruitment assay (GαoA) in HEK293T cells
# Type: cell-based
# CONDITIONS: BRET, HEK293T cells; read-out: EC50, recruitment of GαoA protein to KOR
READOUT_KIND: pEC50
pEC50 field: float, defined as -log10 of concentration (mol/L).

Ask: Consider the compound shown here: C#Cc1ccc2c(c1)C(c1ccccc1F)=NC(C)c1c(C(=O)OC(C)(C)C)ncn1-2 (stereo not shown) What is its recorded pEC50?
Reply: 7.49

---

# Tested on: HEK293
# EXPERIMENT_DESCRIPTION: Viability assay (CellTiter-Glo), HEK293
# Assay type: cell-based, human
# CONDITIONS: 120 μM, CellTiter-Glo
# Method: The screen identified several compounds that reduced NO in activated microglia and macrophages. The tested compounds included achiral and chiral imidazodiazepines and benzodiazepines. […] Viability assay. […] The cells were incubated for 48 hours followed by the addition of CellTiter-Glo™, a luminescence-based cell viability assay (Promega, Madison, WI). All luminescence readings were performed on a Tecan Infinite M1000 plate reader. […] The data were analyzed by nonlinear regression.
Could you please mark Fulfilled for values of Cell viability (%) HEK293 120 μM below 80% and Not fulfilled for values at or above it?

Examples with answers:
- COMPOUND: "C#Cc1ccc2c(c1)C(c1ccccc1F)=NCc1c(-c3nc(C)no3)ncn1-2"
  TARGET_OF_ASSAY: "HEK293"
  CAT: "Fulfilled"
- COMPOUND: "C[C@H]1N=C(c2ccccc2F)c2cc(C3CC3)ccc2-n2cnc(C(=O)N(C)C)c21"
  TARGET_OF_ASSAY: "HEK293"
  CAT: "Not fulfilled"
- COMPOUND: "C#Cc1ccc2c(c1)C(c1ccccn1)=N[C@H](C)c1c(C(=O)OCC)ncn1-2"
  TARGET_OF_ASSAY: "HEK293"
  CAT: "Not fulfilled"
- COMPOUND: "C#Cc1ccc2c(c1)C(c1ccccc1F)=N[C@H](C)c1c(C(=O)NC)ncn1-2"
  TARGET_OF_ASSAY: "HEK293"
  CAT: "Fulfilled"
- COMPOUND: "CC1N=C(c2ccccc2F)c2cc(C#C[Si](C)(C)C)ccc2-n2cnc(-c3cnco3)c21 (centres unmarked) [GL-III-77]"
  TARGET_OF_ASSAY: "HEK293"
  CAT: "Fulfilled"
- COMPOUND: "C#Cc1ccc2c(c1)C(c1ccccc1F)=N[C@H](C)c1c(C(=O)NC(C)C)ncn1-2"
  TARGET_OF_ASSAY: "HEK293"
  CAT: "Fulfilled"
- COMPOUND: "C#Cc1ccc2c(c1)C(c1ccccc1F)=NC(C)c1c(C(=S)NC3CC3)ncn1-2 (centres unmarked)"
  TARGET_OF_ASSAY: "HEK293"
  CAT: "Not fulfilled"
- COMPOUND: "CCOC(=O)c1ncn2c1CN=C(c1ccccn1)c1cc(C3CC3)ccc1-2"
  TARGET_OF_ASSAY: "HEK293"
  CAT: "Fulfilled"
- COMPOUND: "C[C@@H]1N=C(c2ccccc2F)c2cc(Br)ccc2-n2cnc(-c3cnco3)c21"
  TARGET_OF_ASSAY: "HEK293"
  CAT: "Fulfilled"
- COMPOUND: "CCOC(=O)c1ncn2c1[C@@H](C)N=C(c1ccccc1F)c1cc(Cl)ccc1-2"
  TARGET_OF_ASSAY: "HEK293"
  CAT: "Fulfilled"

Ask: Check if Cell viability (%) HEK293 120 μM falls below 80% for C#Cc1ccc2c(c1)C(c1ccccc1F)=NCc1c(C(=O)O)ncn1-2 .
Reply: Not fulfilled

Ask: Would you mind doing CC1N=C(c2ccccc2F)c2cc(C#C[Si](C)(C)C)ccc2-n2cnc(-c3cnco3)c21 (centres unmarked) [GL-III-72] as well?
Reply: Fulfilled
